- PROTOCOL_SUMMARY: Viability assay: effect of selected compounds on viability
- Assay type: cell-based
- CONDITION_INFO: 1.0 μM compound
Please go through the items and note down their viability at 1 µM.
Numbers only, in %.

Known results for compounds:
CN(C)CCCOC(=O)Nc1nc2cc(C(=O)c3ccc(F)cc3)ccc2[nH]1 [Compound 17]: 93.9
CCCSc1ccc2[nH]c(NC(=O)OCCN(C)C)nc2c1 [Compound 15]: 97.4
COC(=O)Nc1nc2cc(Oc3cccc(N4CCN(C)CC4)n3)ccc2[nH]1 [Compound 12]: 94.5
COC(=O)Nc1nc2cc(C(=O)c3ccc(N(C)C4COC4)cc3)ccc2[nH]1 [Compound 9]: 34.9
COC(=O)Nc1nc2cc(Oc3cccc(N4CCN(C)CC4)c3)ccc2[nH]1 [Compound 13]: 80.9

Attention now turns to another entry.
Indicate the recorded viability at 1 µM value for this compound: CCCSc1ccc2[nH]c(NC(=O)OCCCN(C)C)nc2c1 [Compound 16]
90.1
